ADCC Activity Average EC50, Human B Cells reference
Biological target: T1, human CXCR5 (human, UniProt P32302 1-372)
T1 sequence: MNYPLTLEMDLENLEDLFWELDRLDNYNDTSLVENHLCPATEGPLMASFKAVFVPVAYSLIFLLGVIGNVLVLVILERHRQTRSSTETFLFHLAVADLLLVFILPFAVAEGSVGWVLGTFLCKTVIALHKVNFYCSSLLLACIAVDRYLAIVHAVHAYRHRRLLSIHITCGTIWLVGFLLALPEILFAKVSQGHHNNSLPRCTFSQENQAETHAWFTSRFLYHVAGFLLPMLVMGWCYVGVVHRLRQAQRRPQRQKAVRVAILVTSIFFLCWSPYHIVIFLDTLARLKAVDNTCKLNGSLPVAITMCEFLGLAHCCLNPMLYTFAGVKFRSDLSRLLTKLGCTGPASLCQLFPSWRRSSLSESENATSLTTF
Assay: cell-based or functional assay
recorded endpoint: ADCC Activity Average EC50, Human B Cells

- Humanized 11G2 153/156 (antibody, human IgG1, V domains shown, also called h11G2 VH (XC156)/VL (XC153)) VH: EVQLVESGGGLVQPGGSLRLSCATSGFTFTDFYMSWVRQAPGKGLEWVGFIRNKANGYTTEYSASVKGRFTISRDNAKNSLYLQMNSLRAEDTAVYYCVRVYGSTLHYWGQGTLVTVSS VL: DIQMTQSPSSLSASVGDRVTITCRASESVEYHGTSLMHWYQQKPGKAPKLLIYAASNVESGVPSRFSGSGSGTDFTLTISSLQPEDFATYFCQQSRKVPWTFGQGTKVEIK: 0.568 nM
- Humanized 11G2 154/157 (antibody, human IgG1, V domains shown, also called h11G2 VH (XC157)/VL (XC154)) VH: EVQLVESGGGLVQPGGSLRLSCATSGFTFTDFYMSWVRQAPGKGLEWVGFIRNKANGYTTEYSASVKGRFTISRDNAKSSLYLQMNSLRAEDTAVYYCVRVYGSTLHYWGQGTLVTVSS VL: DIQMTQSPSSLSASVGDRVTITCRASESVEYHGTSLMHWYQQKPGKAPKLLIYAASNVESGVPSRFSGSGSGTDFTLTISSLQPEDFATYYCQQSRKVPWTFGQGTKVEIK: 0.517 nM
- Humanized 11G2 153/155 (antibody, human IgG1, V domains shown, also called h11G2 VH (XC155)/VL (XC153)) VH: EVQLVESGGGLVQPGGSLRLSCAASGFTFTDFYMSWVRQAPGKGLEWVGFIRNKANGYTTEYSASVKGRFTISRDNAKNSLYLQMNSLRAEDTAVYYCARVYGSTLHYWGQGTLVTVSS VL: DIQMTQSPSSLSASVGDRVTITCRASESVEYHGTSLMHWYQQKPGKAPKLLIYAASNVESGVPSRFSGSGSGTDFTLTISSLQPEDFATYFCQQSRKVPWTFGQGTKVEIK: 0.463 nM
- Afucosyl Chimeric 41A10 (antibody, human IgG1, kappa, V domains shown, afucosylated Fc glycan (Asn297)) VH: EVQLVESGGDLVKPGGSLKLSCAASGFTFRSYGMSWVRQTPDKRLEWVATISSGGTYTFYPDILKGRITISRDNAKNTLYLQMSNLKSEDTAMYYCARRGEDYRGALEHWGQGTSVTVSS VL: QIVLTQSPAVMSASPGEKVTMTCSASSSVNYIHWYQQKSGTSPKRWIYETSRLASGVPVRFSGSGSGTSYSLTISTMEAEDAATYYCQQWSSNPLTFGAGTKLELKR: 0.0545 nM
- Humanized 41A10 142/148 (antibody, human IgG1, V domains shown, also called h41A10 VH (XC148)/VL (XC142)) VH: EVQLVESGGGLVQPGGSLRLSCAASGFTFRSYGMSWVRQAPGKGLEWVATISSGGTYTFYPDILKGRFTISRDNAKNSLYLQMNSLRAEDTAVYYCARRGEDYRGALEHWGQGTLVTVSS VL: DIQMTQSPSSLSASVGDRVTITCSASSSVNYIHWYQQKPGKAPKRLIYETSRLASGVPSRFSGSGSGTDYTLTISSLQPEDFATYYCQQWSSNPLTFGQGTKVEIK: 1.11 nM
